test.system: human dopamine D2 receptor (Homo sapiens, UniProt P14416)
Construct: membrane preparation
Sequence (P14416 whole entry): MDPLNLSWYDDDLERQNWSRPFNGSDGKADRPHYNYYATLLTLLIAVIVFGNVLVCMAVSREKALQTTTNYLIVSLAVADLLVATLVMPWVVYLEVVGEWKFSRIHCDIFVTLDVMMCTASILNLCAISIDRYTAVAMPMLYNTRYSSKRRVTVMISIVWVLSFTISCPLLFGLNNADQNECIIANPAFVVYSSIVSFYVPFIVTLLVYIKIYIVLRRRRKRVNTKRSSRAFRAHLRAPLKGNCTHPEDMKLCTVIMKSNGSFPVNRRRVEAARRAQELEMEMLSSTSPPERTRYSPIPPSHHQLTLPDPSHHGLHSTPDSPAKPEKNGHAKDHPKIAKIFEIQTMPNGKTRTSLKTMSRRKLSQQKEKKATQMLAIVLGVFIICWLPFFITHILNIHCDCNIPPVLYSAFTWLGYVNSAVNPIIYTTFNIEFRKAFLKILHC
assay.info: Radioligand binding ([3H]-spiperone) to membranes of HEK-293 EBNA cells expressing human D2 receptor
experimental.context: human D2, 0.7 nM [3H]-spiperone, HEK-293 EBNA membranes, 1 h at RT
metric: log10(Ki) (log10 of the value in nM)

[[record]]
molecule = "CC(C)OC1CCC(CC(=O)N[C@H]2CC[C@H](CCN3CCN(c4noc5ccc(F)cc45)CC3)CC2)CC1 (mixture of isomers)"
test_system = "human dopamine D2 receptor (Homo sapiens, UniProt P14416)"
metric = "log10(Ki)"
result = 4.06

[[record]]
molecule = "CC1(CC(=O)N[C@H]2CC[C@H](CCN3CCN(c4noc5ccc(F)cc45)CC3)CC2)COC1"
test_system = "human dopamine D2 receptor (Homo sapiens, UniProt P14416)"
metric = "log10(Ki)"
result = 2.49

[[record]]
molecule = "O=C(CC1CCOCC1)N[C@H]1CC[C@H](CCN2CCN(c3noc4cc(Cl)c(F)cc34)CC2)CC1"
test_system = "human dopamine D2 receptor (Homo sapiens, UniProt P14416)"
metric = "log10(Ki)"
result = 4.05

[[record]]
molecule = "CC(C)(O)CC(=O)N[C@H]1CC[C@H](CCN2CCN(c3noc4cc(F)c(F)cc34)CC2)CC1"
test_system = "human dopamine D2 receptor (Homo sapiens, UniProt P14416)"
metric = "log10(Ki)"
result = 2.78

[[record]]
molecule = "CCS(=O)(=O)N[C@H]1CC[C@H](CCN2CCN(c3noc4cc(F)c(F)cc34)CC2)CC1"
test_system = "human dopamine D2 receptor (Homo sapiens, UniProt P14416)"
metric = "log10(Ki)"
result = 2.81

[[record]]
molecule = "CS(=O)(=O)CC(=O)N[C@H]1CC[C@H](CCN2CCN(c3noc4cc(F)c(Cl)cc34)CC2)CC1"
test_system = "human dopamine D2 receptor (Homo sapiens, UniProt P14416)"
metric = "log10(Ki)"
result = 4.05

[[record]]
molecule = "CC(=O)N[C@H]1CC[C@H](CCN2CCN(c3noc4cc(F)c(F)cc34)CC2)CC1"
test_system = "human dopamine D2 receptor (Homo sapiens, UniProt P14416)"
metric = "log10(Ki)"
result = 2.58

[[record]]
molecule = "O=C(CC1CCCCO1)N[C@H]1CC[C@H](CCN2CCN(c3noc4cc(Cl)ccc34)CC2)CC1 (stereo partly drawn)"
test_system = "human dopamine D2 receptor (Homo sapiens, UniProt P14416)"
metric = "log10(Ki)"
result = 2.95

[[record]]
molecule = "O=C(N[C@H]1CC[C@H](CCN2CCN(c3noc4cc(Cl)ccc34)CC2)CC1)C1CCOCC1"
test_system = "human dopamine D2 receptor (Homo sapiens, UniProt P14416)"
metric = "log10(Ki)"
result = 3.48

[[record]]
molecule = "COc1ccc(C(=O)N[C@H]2CC[C@H](CCN3CCN(c4noc5cc(F)c(Cl)cc45)CC3)CC2)s1"
test_system = "human dopamine D2 receptor (Homo sapiens, UniProt P14416)"
metric = "log10(Ki)"
result = 2.57

[[record]]
molecule = "O=C(N[C@H]1CC[C@H](CCN2CCN(c3noc4cc(F)c(Cl)cc34)CC2)CC1)c1ccc(Cl)s1"
test_system = "human dopamine D2 receptor (Homo sapiens, UniProt P14416)"
metric = "log10(Ki)"
result = 2.41

[[record]]
molecule = "CCC(=O)N[C@H]1CC[C@H](CCN2CCN(c3noc4cc(F)c(Cl)cc34)CC2)CC1"
test_system = "human dopamine D2 receptor (Homo sapiens, UniProt P14416)"
metric = "log10(Ki)"
result = 2.40

[[record]]
molecule = "CC(C)(O)CC(=O)N[C@H]1CC[C@H](CCN2CCN(c3noc4ccc(F)cc34)CC2)CC1"
test_system = "human dopamine D2 receptor (Homo sapiens, UniProt P14416)"
metric = "log10(Ki)"
result = 2.68

[[record]]
molecule = "O=C(CC1CCOCC1)N[C@H]1CC[C@H](CCN2CCN(c3noc4cc(F)ccc34)CC2)CC1"
test_system = "human dopamine D2 receptor (Homo sapiens, UniProt P14416)"
metric = "log10(Ki)"
result = 2.08


# credit: patent US7858630B2
